target-of-assay: Serine/threonine-protein kinase SIK1 (Homo sapiens)
cond: at 1 µM
Values of residual activity greater than or equal to 90% map to class 1; values below map to class 0.

# compound, class-label
data = [
    ("O=c1[nH]c2ccccc2n1C1CCN(Cc2ccc(-c3nc4cc5[nH]cnc5cc4nc3-c3ccccc3)cc2)CC1", "class 1"),
    ("COc1ccc2c(c1)/C(=C/c1cnc[nH]1)C(=O)N2", "class 1"),
    ("c1cc(-c2cnn3cc(-c4ccc(OCCN5CCCCC5)cc4)cnc23)ccn1", "class 0"),
    ("COc1cc2ncnc(Nc3ccc(OCc4ccccc4)cc3)c2cc1OC", "class 0"),
    ("C[S+]([O-])c1ccc(-c2nc(-c3ccc(F)cc3)c(-c3ccncc3)[nH]2)cc1 (centres undefined)", "class 1"),
    ("CCn1cnc2c(Nc3cccc(Cl)c3)nc(N[C@@H]3CCCC[C@@H]3N)nc21", "class 0"),
    ("COc1cc(OC)c(/C=C2\\C(=O)Nc3ccccc32)c(OC)c1", "class 1"),
    ("O=[N+]([O-])/C=C/c1ccc2c(c1)OCO2", "class 1"),
]
